Assay: yeast display, Sf9 membrane polyspecificity reagent, FACS + sequencing; frameworks hold sequencing errors
endpointLabel: polyreactivity (PSR sort gate)

A selection of reference data follows.
QVQLVESAGGLVQAGGSLRLSCAASASTFTNYVMGWYRQAPGKERELVAAITKSGGSTYYADSVKGRYTISRDNAKNTVYLQMNRLKPEDTAVYYCAARRTTEFGYWGQGTQVTVSS ... high polyreactivity
QVQLVESRGGLVQAGGSLRLSCAASGSTFTYNAMGWYRQAPGKERELVASINSGGSTYYADSVKGRFTISRDNAKNNFYLQMNSLKPEDTAVYYCAKDLHLDSYASDYWGQGTQVTVSS ... low polyreactivity
QVQLVESGGGLVQAGGILRLSCAASGRIFGGNAMGWYRQSPGKEREFVAAITWRGGTTYYADSVKGRFTISRDNAKNTVYLQMNSLKPEDTAVYYCNAMPYTRNTGYDYWGQGTQVTVSS ... high polyreactivity
QVQLVESGGGLVQAGGSLRLSCAASGFIFPEYAMGWYRQAPGKERELVAAINWSGGNTYYADSVKGRFTISRDNAKNTVYLQMNSLKPEDTAVYYCNVDDWVTDDDYWGQGTQVTVSS ... low polyreactivity

Q: # lookup: polyreactivity (PSR sort gate) of QVQLVESGGGLVQAGGSLRLSCAASGSTFVGKVMGWYRQAPGKERELVAAISRGGSTYYADSVKGRFTISRDNAKNTVYLQMNSLKPEDTAVYYCAADVRPWGNYHAQYDYWGQGTQVTVSS
Result: low polyreactivity

Q: # lookup: polyreactivity (PSR sort gate) of QVQLEESGGGLVQAGGSLRLSCAASGRIFIRNAMGWYRQAPGKERELVAAISYSGGSTYYADSVKGRFTISRDNAKNTVYLQMNSLKPEDTAVYYCAAGSIRGTSFYYWGQGTQVTVSS
Result: high polyreactivity

Q: # lookup: polyreactivity (PSR sort gate) of QVQLVESGGGLVQAGGSLRLSCAASGRIFYYNAMGWYRQAPGKERELVAAITRTGGSTYYADSVKGRFTISRDNAKNTVYLQMNSLKPEDTAVYYCAAYGGRDIRFEYWGQGTQVTVSS
Result: high polyreactivity
